Tested on: Kappas-299 cells containing NPM-ALK fusion protein
run.description: 4-day cell viability assay (CellTiter-Glo), Kappas-299
Assay type: cell-based
conditions: NPM-ALK, 96 h, inhibition of cell growth, 4 days, multiple values from independent experiments
pIC50: −log10 of the molar value.
pIC50: recorded values
observation.type: pIC50

smiles.data: CCc1cc2c(=O)c3c4ccc(C#N)cc4[nH]c3n(C3CCCC3)c2cc1N1CCN(C)CC1
observation.type: pIC50
numeric.readout: 7.15
--
smiles.data: CCc1cc2c(=O)c3c4ccc(C#N)cc4[nH]c3n(C(C)C)c2cc1C1CCN(C)CC1
observation.type: pIC50
numeric.readout: 7.85
--
smiles.data: CCc1cc2c(=O)c3c4ccc(C#N)cc4[nH]c3n(C3CCC3)c2cc1N1CCN(C)CC1
observation.type: pIC50
numeric.readout: 7.46
--
smiles.data: CC(C)Oc1cc2c(=O)c3c4ccc(C#N)cc4[nH]c3n(C(C)C)c2c(F)c1N1CCN(C)CC1
observation.type: pIC50
numeric.readout: 7.51

----------
run.description: Pharmacokinetic parameters in SD rats, IV and PO
conditions: Sprague-Dawley (SD), rat, in vivo, oral, read-out: t1/2 PO (converted)
# note: exactly 4 h is not below, so it is condition not met; use condition met for half-life strictly under it

smiles.data: COc1cc2c(=O)c3c4ccc(C#N)cc4[nH]c3n(C(C)C)c2c(F)c1C1CCN(C2COC2)CC1
assigned.class: condition met
//
smiles.data: COc1cc2c(=O)c3c4ccc(C#N)cc4[nH]c3n(C(C)C)c2c(F)c1C1CCN(C(C)C)CC1
assigned.class: condition not met
//
smiles.data: COc1cc2c(=O)c3c4ccc(C#N)cc4[nH]c3n(C(C)C)c2c(F)c1C1CCN(C2CCOCC2)CC1
assigned.class: condition not met
//
smiles.data: CC(C)Oc1cc2c(=O)c3c4ccc(C#N)cc4[nH]c3n(C(C)C)c2c(F)c1N1CCN(C)CC1
assigned.class: condition not met

----------
run.description: Pharmacokinetic parameters in SD rats, IV and PO
conditions: Sprague-Dawley (SD), rat, in vivo, oral, read-out: Cmax PO
observation.type: Cmax

compound: COc1cc2c(=O)c3c4ccc(C#N)cc4[nH]c3n(C(C)C)c2c(F)c1C1CCN(C2CCOCC2)CC1 [CJ-2226]
result: 230 ng/mL

compound: COc1cc2c(=O)c3c4ccc(C#N)cc4[nH]c3n(C(C)C)c2c(F)c1C1CCN(C2COC2)CC1 [CJ-2224]
result: 1170 ng/mL

compound: COc1cc2c(=O)c3c4ccc(C#N)cc4[nH]c3n(C(C)C)c2c(F)c1C1CCN(C(C)C)CC1 [CJ-2225]
result: 225 ng/mL

compound: COc1cc2c(=O)c3c4ccc(C#N)cc4[nH]c3n(C(C)C)c2c(F)c1C1CCN(C)CC1 [CJ-2212]
result: 208 ng/mL

compound: CC(C)Oc1cc2c(=O)c3c4ccc(C#N)cc4[nH]c3n(C(C)C)c2c(F)c1N1CCN(C)CC1 [ALK-86]
result: 258 ng/mL

compound: CCOc1cc2c(=O)c3c4ccc(C#N)cc4[nH]c3n(C(C)C)c2c(F)c1N1CCN(C)CC1 [ALK-83]
result: 548 ng/mL

----------
Tested on: Kappas-299 cells containing NPM-ALK fusion protein
run.description: 4-day cell viability assay (CellTiter-Glo), Kappas-299
Format: cell-based
conditions: NPM-ALK, 96 h, inhibition of cell growth, 4 days, multiple values from independent experiments
Procedure: The effect of compounds on cell viability was determined in a 4-day proliferation assay. Cells were maintained in RPMI1640 culture medium with 10% FBS at 37° C. and an atmosphere of 5% CO2. […] For CellTiter-Glo assay, 100 μl of CellTiter-Glo® Reagent was added to each well, and then the plates were incubated at room temperature for 10-20 minutes. The luminescent signal was measured using a Tecan Infinite M1000 multimode microplate reader (Tecan, Morrisville, N.C.). […]
Let's look at some molecules and their measured IC50.
observation.type: IC50 (nM)

smiles.data: CCOc1cc2c(=O)c3c4ccc(C#N)cc4[nH]c3n(C3CCCC3)c2cc1N1CCN(C)CC1
numeric.readout: 63
//
smiles.data: CCc1cc2c(=O)c3c4ccc(C#N)cc4[nH]c3n(CC)c2cc1N1CCN(C)CC1
numeric.readout: 317
//
smiles.data: COc1cc2c(=O)c3c4ccc(C#N)cc4[nH]c3n(C3CCC3)c2c(F)c1N1CCN(C)CC1
numeric.readout: 22
//
smiles.data: C=Cc1cc2c(=O)c3c4ccc(C#N)cc4[nH]c3n(C(C)C)c2cc1N1CCN(C)CC1
numeric.readout: 60

----------
tested.target: wild-type human ALK protein (cytoplasmic domain, amino acid 1058-1620, GST-fusion) (Homo sapiens, UniProt Q9UM73)
Sequence (Q9UM73 1058-1620): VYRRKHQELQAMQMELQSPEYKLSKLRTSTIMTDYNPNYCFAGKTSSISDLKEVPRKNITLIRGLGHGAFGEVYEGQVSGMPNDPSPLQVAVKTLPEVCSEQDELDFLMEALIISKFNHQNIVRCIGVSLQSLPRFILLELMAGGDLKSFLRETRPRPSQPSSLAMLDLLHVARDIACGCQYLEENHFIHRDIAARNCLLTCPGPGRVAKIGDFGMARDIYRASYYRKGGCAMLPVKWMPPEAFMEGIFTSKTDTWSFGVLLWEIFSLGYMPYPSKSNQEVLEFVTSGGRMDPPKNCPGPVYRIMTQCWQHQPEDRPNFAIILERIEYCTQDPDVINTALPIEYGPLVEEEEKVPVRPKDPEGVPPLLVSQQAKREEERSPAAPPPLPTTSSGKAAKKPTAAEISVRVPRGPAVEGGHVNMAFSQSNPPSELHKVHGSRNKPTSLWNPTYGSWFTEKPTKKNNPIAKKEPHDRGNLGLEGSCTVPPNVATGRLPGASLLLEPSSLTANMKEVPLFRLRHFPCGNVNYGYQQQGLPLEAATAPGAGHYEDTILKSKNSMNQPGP
run.description: biochemical
conditions: ALK IC50, wild-type ALK; 100 μM ATP
pIC50: −log10 of the molar value.
Label True when pIC50 >= 8; otherwise False.

smiles.data: CC(C)Oc1cc2c(=O)c3c4ccc(C#N)cc4[nH]c3n(C(C)C)c2c(F)c1N1CCN(C)CC1
assigned.class: True
//
smiles.data: CCc1cc2c(=O)c3c4ccc(C#N)cc4[nH]c3n(C(C)C)c2cc1C1CCN(C2COC2)CC1
assigned.class: True
//
smiles.data: COc1cc2c(=O)c3c4ccc(C#N)cc4[nH]c3n(C(C)C)c2cc1N1CCC(N2CCOCC2)CC1
assigned.class: False
//
smiles.data: CC(C)Oc1cc2c(=O)c3c4ccc(C#N)cc4[nH]c3n(C(C)C)c2c(F)c1N1CCC(N2CCOCC2)CC1
assigned.class: False
//
smiles.data: CCOc1cc2c(=O)c3c4ccc(C#N)cc4[nH]c3n(C(C)C)c2c(F)c1N1CCC(N2CCOCC2)CC1
assigned.class: True
//
smiles.data: CCc1cc2c(=O)c3c4ccc(C#N)cc4[nH]c3n(C(C)C)c2cc1C1CCN(C(C)C)CC1
assigned.class: True
